Biological target: SIK3 kinase (aa59-365, Thermo Fisher) (Homo sapiens, UniProt Q9Y2K2)
Construct: SIK3 kinase (aa59-365, Thermo Fisher); purchased Thermo Fisher
Sequence (Q9Y2K2 59-365): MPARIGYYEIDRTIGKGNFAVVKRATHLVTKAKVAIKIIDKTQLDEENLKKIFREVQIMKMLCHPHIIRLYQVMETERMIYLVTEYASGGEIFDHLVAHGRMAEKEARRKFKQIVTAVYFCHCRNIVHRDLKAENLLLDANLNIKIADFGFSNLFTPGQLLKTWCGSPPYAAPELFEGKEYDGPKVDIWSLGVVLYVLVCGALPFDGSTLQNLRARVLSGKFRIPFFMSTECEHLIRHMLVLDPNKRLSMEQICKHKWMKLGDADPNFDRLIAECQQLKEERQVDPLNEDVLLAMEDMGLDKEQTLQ
Experiment: Biochemical activities determination for SIK3 protein (TR-FRET)
Settings: 125 uM ATP, 0.5 μM STK1 substrate
Parameter measured: IC50 (nM)

INSERT INTO measurements (compound, target_entity, parameter_measured, output_unit, val) VALUES
  ('CCc1nnc(-c2c(OC)cc(-c3coc4cc(-c5cnn(C)c5)ccc34)cc2OC)o1 [Compound 36]', 'SIK3 kinase (aa59-365, Thermo Fisher) (Homo sapiens, UniProt Q9Y2K2)', 'IC50', 'nM', 305);

[A] COc1cc(-c2coc3cc(-c4cnn(C5CCN(C)C5)c4)ccc23)cc2c1C(=O)N(CC(F)(F)F)CC2 (centres unmarked) [Compound 51]
[B] CC[C@H]1CCN(CCOc2ccc3c(-c4cc(OC)c(C(=O)N[C@@H]5C[C@@H]5F)c(OC(F)F)c4)coc3c2)C1 [Compound 96]
Between these two entries, A and B , state which has the higher IC50. Output the label that corresponds to your choice. B
(B: 43 nM, A: 26 nM)

###

Target: SIK3 kinase (aa59-365, Thermo Fisher) (Homo sapiens)
Construct: SIK3 kinase (aa59-365, Thermo Fisher); purchased Thermo Fisher
Experiment: Biochemical activities determination for SIK3 protein (TR-FRET)
Details: 125 uM ATP, 0.5 μM STK1 substrate
Parameter measured: IC50 (nM)

INSERT INTO assay_data (compound, target_entity, parameter_measured, val) VALUES
  ('COc1cc(-c2coc3cc(OCCN4CC[C@@H](OC)C4)ccc23)cc(OC(F)F)c1C(=O)N[C@@H]1C[C@@H]1F [Compound 79]', 'SIK3 kinase (aa59-365, Thermo Fisher) (Homo sapiens)', 'IC50', 57);

[a] COc1cc(-c2coc3cc(OCCN4CCCC4)ccc23)cc(OC(F)F)c1C(=O)N[C@H]1C[C@@H]1F [Compound 99]
[b] COc1cc(-c2coc3cc(-c4cc(C)n[nH]4)ccc23)cc2c1C(=O)N(CC(F)(F)F)CC2 [Example 5]
Between these two entries, a and b , state which has the higher IC50. Output the label that corresponds to your choice. a

###

Biological target: SIK2 kinase (full length, Thermo Fisher) (Homo sapiens, UniProt Q9H0K1)
Construct: SIK2 kinase (full length, Thermo Fisher); purchased Thermo Fisher
Sequence (Q9H0K1 whole entry): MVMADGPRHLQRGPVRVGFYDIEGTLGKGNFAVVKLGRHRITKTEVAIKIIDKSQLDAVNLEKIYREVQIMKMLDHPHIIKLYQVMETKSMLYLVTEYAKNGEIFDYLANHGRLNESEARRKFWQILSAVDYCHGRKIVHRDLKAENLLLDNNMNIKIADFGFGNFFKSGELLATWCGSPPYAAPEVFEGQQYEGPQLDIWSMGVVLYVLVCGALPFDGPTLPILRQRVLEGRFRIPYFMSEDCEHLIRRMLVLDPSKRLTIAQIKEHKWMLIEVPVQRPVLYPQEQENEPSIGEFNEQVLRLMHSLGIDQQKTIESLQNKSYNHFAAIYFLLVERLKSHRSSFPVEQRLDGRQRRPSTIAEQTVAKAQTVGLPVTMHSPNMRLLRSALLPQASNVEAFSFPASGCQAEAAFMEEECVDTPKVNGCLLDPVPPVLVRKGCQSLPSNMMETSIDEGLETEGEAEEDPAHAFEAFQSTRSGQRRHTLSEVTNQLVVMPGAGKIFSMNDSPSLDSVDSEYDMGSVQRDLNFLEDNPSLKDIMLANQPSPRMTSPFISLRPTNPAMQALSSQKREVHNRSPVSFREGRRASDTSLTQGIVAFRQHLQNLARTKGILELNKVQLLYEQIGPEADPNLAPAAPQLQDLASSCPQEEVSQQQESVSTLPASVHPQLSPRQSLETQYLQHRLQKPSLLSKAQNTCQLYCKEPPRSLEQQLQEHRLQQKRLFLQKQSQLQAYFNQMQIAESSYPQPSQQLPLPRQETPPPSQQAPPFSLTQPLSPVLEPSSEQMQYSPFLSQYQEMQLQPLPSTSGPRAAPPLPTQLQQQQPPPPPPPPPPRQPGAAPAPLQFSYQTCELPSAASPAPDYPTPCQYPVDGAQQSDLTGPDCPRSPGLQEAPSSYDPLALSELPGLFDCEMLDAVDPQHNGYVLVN
Assay: Biochemical activities determination for SIK2 protein (TR-FRET)
Conditions: 80 uM ATP, 0.5 μM substrate
Parameter measured: IC50 (nM)

INSERT INTO measurements (molecule, parameter_measured, output_unit, val) VALUES
  ('COc1cc(-c2coc3cc(OCCN4CCCC4)ccc23)cc(OC(F)F)c1C(=O)NC1CC1N (racemic)', 'IC50', 'nM', 653);

[P] CN1CC(COc2cc(-c3coc4cc(OCCN5CCCC5)ccc34)cc(OC(F)F)c2C(=O)NC2CC2)C1
[Q] CN1CC(n2cc(-c3ccc4c(-c5cc6c(c(OC(F)F)c5)C(=O)N(CC#N)CC6)coc4c3)cn2)C1
// which entry reports the smaller IC50, P or Q ? Output the label that corresponds to your choice. Q

[1] COc1cc(-c2coc3cc(OCCN4CCC[C@@H]4C)ccc23)cc(OC(F)F)c1C(=O)N[C@@H]1C[C@@H]1F
[2] Cn1cc(-c2ccc3c(-c4cc5c(c(OC(F)F)c4)C(=O)N(CC#N)CC5)coc3c2)cn1
[3] COc1cc(-c2coc3cc(-c4cnn(C)c4)ccc23)cc2c1C(=O)N(Cc1ccccc1)CC2
Order field: IC50 | Direction: descending (largest first) Please, when replying, give the labels in the order that was requested. 3, 1, 2
(3: 673 nM, 1: 20 nM, 2: 11 nM)

[1] O=C1c2c(cc(-c3coc4cc(-c5cnn(C6CNC6)c5)ccc34)cc2OC(F)F)CCN1CC(F)(F)F
[2] COc1cc(-c2coc3cc(OCCN4CCC4)ccc23)cc(OC(F)F)c1C(=O)N[C@@H]1C[C@@H]1F
[3] COc1cc(-c2coc3cc(OCCN4CCCC4)ccc23)cc(OC(F)F)c1C(=O)NC1CC1
[4] COc1cc(-c2coc3cc(OCCCN4CCCC4)ccc23)cc(OC(F)F)c1C(=O)N[C@@H]1C[C@@H]1F
Sort low-to-high on IC50, please. Please, when replying, give the labels in the order that was requested. 4, 2, 1, 3
